system: MCF-7; assay: DTP human tumor cell line one-dose prescreen, MCF-7; format: cell-based; details: MCF7, 48 hours, Alamar Blue, test/control, read-out: Percentage growth Breast MCF-7
value kind: activity at 100 µM (%)
Write the answer as a number in %, unit excluded.

Answered examples (5):
CSc1nc(-c2ccccn2)n(-c2ccc(F)cc2)c(=O)c1C#N
80
CCOC(=O)c1c(SC)nc(-c2ccc(SC)cc2)n(-c2ccc(C)cc2)c1=O
85
CSc1ccc(-c2nc(SC)c(C#N)c(=O)n2-c2ccc(Cl)cc2)cc1
89
CSc1nc(-c2cccnc2)n(-c2ccc(F)cc2)c(=O)c1C#N
74
COc1ccc(-n2c(-c3ccc(SC)cc3)nc(SC)c(C#N)c2=O)cc1
90

Kindly indicate its recorded activity at 100 µM. Item: "CCOC(=O)c1c(SC)nc(-c2ccc(F)cc2)n(-c2ccc(SC)cc2)c1=O"
68

Kindly indicate its recorded activity at 100 µM. Item: "CSc1ccc(-n2c(-c3ccccn3)nc(SC)c(C#N)c2=O)cc1"
38
